# studyTarget: ternary complex (Escherichia coli, UniProt P0CE48)
# Construct: 6-His tag followed by TEV protease site (N); made in house; host or cells: E. coli (bacterial expression vector pPROEX-Ht-b)
# testName: Equilibrium titration of nucleotide into Cy3-labeled Phe-tRNAPhe with saturating EF-Tu
# Format: binding, E. coli
# condition: Example 2, saturating EF-Tu (~300 nM); read-out: affinity of GTP in the formation of ternary complex

molecule	studyTarget	Kd
Nc1nc2c(ncn2[C@@H]2O[C@H](COP(=O)(O)OP(=O)(O)OP(=O)(O)O)[C@@H](O)[C@H]2O)c(=O)[nH]1 [GTP, guanosine nucleotide triphosphate]	ternary complex (Escherichia coli, UniProt P0CE48)	~200 nM

====

A collection of molecules and their measured pKd
# studyTarget: ternary complex (Escherichia coli, UniProt P0CE48)
# Construct: 6-His tag followed by TEV protease site (N); made in house; host or cells: E. coli (bacterial expression vector pPROEX-Ht-b)
# testName: Equilibrium titration of nucleotide into Cy3-labeled Phe-tRNAPhe with saturating EF-Tu
# Assay type: binding, E. coli
# condition: 5 nM Phe-tRNAPhe (Cy3-acp3U47), saturating EF-Tu (400 nM EF-Tu/EF-Ts); read-out: Kd (apparent affinity of nucleotide for ternary complex)
pKd: −log10 of the molar value.
outcomeMeasure: pKd

molecule	measuredResult
Nc1nc2c(ncn2[C@@H]2O[C@H](COP(=O)(O)OP(=O)(O)NP(=O)(O)O)[C@@H](O)[C@H]2O)c(=O)[nH]1 [GDPNP, guanylyl-imino-diphosphate]	5.03
Nc1nc2c(ncn2[C@@H]2O[C@H](COP(=O)(O)OP(=O)(O)OP(=O)(O)O)[C@@H](O)[C@H]2O)c(=O)[nH]1 [GTP, guanosine nucleotide triphosphate]	6.16
